Biological target: GlyT1 transporter (Homo sapiens, UniProt P48067)
Construct: endogenously expressing the GlyT1 transporter
Sequence (P48067 whole entry): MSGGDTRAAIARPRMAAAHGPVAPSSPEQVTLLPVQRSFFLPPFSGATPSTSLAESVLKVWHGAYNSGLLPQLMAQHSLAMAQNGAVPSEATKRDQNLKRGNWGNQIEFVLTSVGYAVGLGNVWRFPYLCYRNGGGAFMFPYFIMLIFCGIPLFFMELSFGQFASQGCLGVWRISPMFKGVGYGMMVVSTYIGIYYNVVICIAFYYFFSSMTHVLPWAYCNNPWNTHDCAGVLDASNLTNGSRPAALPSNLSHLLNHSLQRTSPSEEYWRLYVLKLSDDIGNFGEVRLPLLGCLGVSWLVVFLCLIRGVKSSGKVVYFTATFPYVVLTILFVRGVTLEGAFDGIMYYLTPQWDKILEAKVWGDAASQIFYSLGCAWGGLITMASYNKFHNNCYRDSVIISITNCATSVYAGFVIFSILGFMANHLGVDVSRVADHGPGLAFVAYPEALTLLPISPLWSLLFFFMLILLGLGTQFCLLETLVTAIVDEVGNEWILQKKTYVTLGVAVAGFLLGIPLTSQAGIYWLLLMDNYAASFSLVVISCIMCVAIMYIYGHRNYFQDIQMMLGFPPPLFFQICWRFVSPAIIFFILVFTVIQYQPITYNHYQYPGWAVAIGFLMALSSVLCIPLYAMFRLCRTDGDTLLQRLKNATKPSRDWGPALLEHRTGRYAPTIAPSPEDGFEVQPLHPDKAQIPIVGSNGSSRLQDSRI
Assay: GlyT1 assay: 3H-glycine uptake into SK-N-MC cells (Cytostar-T format)
Conditions: glycine uptake in human SK-N-MC cells endogenously expressing GlyT1; 500 nM glycine, 1% DMSO, signal recorded over 60 min
Excerpt: Cells expressing either endogenously the GlyT1 transporter like JAR cells (human placental choriocarcinoma cells; e.g. WO 2008/002583) or SK-N-MC cells (human neuroblastoma cells; Depoortere et al., 2005. Neuropsychopharmacology 30:1963-1985) or primary neurons or cells which have been transfected with a plasmid encoding the cDNA of a functional GlyT1 transporter and stably or transiently express GlyT1 (e.g. WO 2006/08200) can be used to monitor glycine uptake in cells. […]
pIC50: −log10 of the molar value.
measurement-name: pIC50

[[record]]
molecule = "C[C@H](Oc1ccc(S(C)(=O)=O)cc1C(=O)N1CC2CC2(c2noc(C3CC3)n2)C1)C(F)(F)F (single isomer, unassigned) [Example 11]"
measurement_name = "pIC50"
reported_value = 6.76


I = C[C@H](Oc1ccc(S(C)(=O)=O)cc1C(=O)N1CC2CC2(c2noc(C3CC3)n2)C1)C(F)(F)F (single isomer, unassigned) [Example 10]
II = CCS(=O)(=O)c1ccc(O[C@@H](C)C(F)(F)F)c(C(=O)N2CC3CC3(c3nccc(C(F)(F)F)n3)C2)c1 (single isomer, unassigned) [Example 74]
Qu. Sort I and II by pIC50 descending and give the first. Give the chosen item's label as your response.
Ans. II

1 = C[C@@H](Oc1ccc(S(C)(=O)=O)cc1C(=O)N1CC2CC2(c2nc(C(F)(F)F)co2)C1)C(F)(F)F (mixture of isomers) [Example 113]
2 = CCS(=O)(=O)c1ccc(O[C@H](C)C(F)(F)F)c(C(=O)N2CC3CC3(c3nccc(C(F)(F)F)n3)C2)c1 (single isomer, unassigned) [Example 78]
3 = C[C@H](Oc1ccc(S(C)(=O)=O)cc1C(=O)N1CC2CC2(c2nc(C(F)(F)F)no2)C1)C(F)(F)F (mixture of isomers) [Example 36]
Qu. Ascending sort, pIC50. # format: label list in the order the request specifies
Ans. 1, 3, 2
(1: 6.67, 3: 7.21, 2: 8.15)

1 = CCS(=O)(=O)c1ccc(O[C@H](C)C(F)(F)F)c(C(=O)N2CC3CC3(c3nccc(C(F)(F)F)n3)C2)c1 (mixture of isomers) [Example 76]
2 = C[C@@H](Oc1ccc(S(C)(=O)=O)cc1C(=O)N1CC2CC2(c2ncc(C(F)(F)F)o2)C1)C(F)(F)F (single isomer, unassigned) [Example 129]
3 = C[C@H](Oc1ccc(S(C)(=O)=O)cc1C(=O)N1CC2CC2(c2noc(C3(C(F)(F)F)CC3)n2)C1)C(F)(F)F (single isomer, unassigned) [Example 66]
4 = CCS(=O)(=O)c1ccc(O[C@H](C)C(F)(F)F)c(C(=O)N2CC3CC3(c3noc(C(F)(F)F)n3)C2)c1 (single isomer, unassigned) [Example 94]
Qu. Ascending sort, pIC50. # format: label list in the order the request specifies
Ans. 4, 2, 1, 3

1 = Cc1c(C23CC2CN(C(=O)c2cc(S(C)(=O)=O)ccc2O[C@H](C)C(F)(F)F)C3)noc1C(F)(F)F (mixture of isomers) [Example 160]
2 = C[C@H](Oc1ccc(C#N)cc1C(=O)N1CC2CC2(c2noc(C(F)(F)F)n2)C1)C(F)(F)F (mixture of isomers) [Example 88]
Qu. Sort 1 and 2 by pIC50 descending and give the first. Give the chosen item's label as your response.
Ans. 1
(1: 8.10, 2: 6.77)

1 = C[C@@H](Oc1ccc(S(C)(=O)=O)cc1C(=O)N1CC2CC2(c2nc(C(F)(F)F)no2)C1)C(F)(F)F (single isomer, unassigned) [Example 87]
2 = COC1(c2nc(C34CC3CN(C(=O)c3cc(S(C)(=O)=O)ccc3O[C@@H](C)C(F)(F)F)C4)no2)CC1 (mixture of isomers) [Example 116]
3 = Cc1nc(C23CC2CN(C(=O)c2cc(S(C)(=O)=O)ccc2O[C@@H](C)C(F)(F)F)C3)no1 (mixture of isomers) [Example 6]
Qu. Arrange these molecules by their pIC50, starting with the largest number. # format: label list in the order the request specifies
Ans. 2, 3, 1

1 = C[C@H](Oc1ccc(S(C)(=O)=O)cc1C(=O)N1CC2CC2(c2noc(C(F)(F)F)n2)C1)C(F)(F)F (single isomer, unassigned) [Example 2]
2 = COC1(c2nc(C34CC3CN(C(=O)c3cc(S(C)(=O)=O)ccc3O[C@H](C)C(F)(F)F)C4)no2)CC1 (single isomer, unassigned) [Example 120]
Qu. Hi there, can you help? I need to know whether 1 or 2 has lower measured pIC50. Give the chosen item's label as your response.
Ans. 1
(1: 7.74, 2: 8.22)

I = C[C@H](Oc1ccc(S(C)(=O)=O)cc1C(=O)N1CC2CC2(c2ncccn2)C1)C(F)(F)F (mixture of isomers) [Example 14]
II = C[C@@H](Oc1ccc(S(C)(=O)=O)cc1C(=O)N1CC2CC2(c2ncc(C(F)(F)F)o2)C1)C(F)(F)F (mixture of isomers) [Example 128]
III = C[C@@H](Oc1ccc(C#N)cc1C(=O)N1CC2CC2(c2noc(C(F)(F)F)n2)C1)C(F)(F)F (mixture of isomers) [Example 91]
Qu. Arrange these molecules by their pIC50, starting with the largest number. # format: label list in the order the request specifies
Ans. II, I, III
(II: 8.22, I: 7.17, III: 6.95)

a = Cc1c(C23CC2CN(C(=O)c2cc(S(C)(=O)=O)ccc2O[C@@H](C)C(F)(F)F)C3)noc1C(F)(F)F (single isomer, unassigned) [Example 165]
b = C[C@@H](Oc1ccc(S(C)(=O)=O)cc1C(=O)N1CC2CC2(c2csc(C(F)(F)F)n2)C1)C(F)(F)F (single isomer, unassigned) [Example 31]
Qu. Hi there, can you help? I need to know whether a or b has lower measured pIC50. Give the chosen item's label as your response.
Ans. b
(b: 6.00, a: 6.40)
